Data provenance is PubChem BioAssay AID686978.

Protocol Summary: qHTS for Inhibitors of human tyrosyl-DNA phosphodiesterase 1 (TDP1): qHTS in cells in absence of CPT; further: nearly all actives have a fitted effect of over 55% in size
Condition Set: DT40 Tdp1-/- hTDP1 cells, no CPT, ATP luminescence, 48 h
Experimental: Human tyrosyl-DNA phosphodiesterase 1 (TDP1) is a novel repair gene, and we propose to use it as a new target for anticancer drug development. […] For the primary screen, Tdp1-/-;hTDP1 cells will be exposed to small molecules in the presence or absence of CPT, and their growth kinetics will be evaluated after 48 hours by measuring ATP activity. […] The hit compounds will then be evaluated in the presence or absence of CPT using Tdp1-/- cells. […]
Among all 420,000 compounds or so, about 64,000 (15%) were called active. Another 27% or so got no clear call; they are omitted. The call rests on the fitted dose curve; in most records, active means well fitted inhibition curve with a large enough effect; inconclusive means small, poorly fitted or top-dose-only effect; inactive means flat fitted curve, though single readings scatter. Not all results are given here.
Could you please pick one outcome from this set? 1.0 (active), 0.0 (inactive)

Example entries and their recorded answers appear below.
>>> category_label("CCOc1ccc(OCC)c(NC(=O)C(NS(=O)(=O)c2ccc3c(c2)oc(=O)n3C)C(C)C)c1 (stereo not drawn)")
0.0
>>> category_label("Nn1c(SCC(=O)NC(=O)NC2CCCC2)nnc1-c1ccccc1F")
0.0
>>> category_label("Cn1c2c(c(=O)n(C)c1=O)[C@@H]1c3c(ccc4ccccc34)OC[C@@H]1CO2")
0.0
>>> category_label("CCc1nc2ccc(C(=O)N(C)CCN(C)C)cn2c1N(CC)CCOC")
0.0
>>> category_label("O=C(CNC(=O)Cc1ccccc1)N=Nc1c(O)[nH]c2ccc(Br)cc12")
0.0
>>> category_label("Cc1cc(NC(=O)CCC(=O)N(CC(=O)NCC2CCCO2)c2ccccc2)no1 (stereo not drawn)")
0.0
>>> category_label("COc1ccccc1OCCNCC(O)COc1cccc2[nH]c3ccccc3c12 (stereo not drawn)")
1.0
>>> category_label("CCOC(=O)c1cnn(Cc2ccccc2Cl)c1N")
0.0
>>> category_label("O=C(NCc1cccnc1)C12CC3CC(CC(C3)C1)C2")
0.0
>>> category_label("N#C/C(=C\\c1ccccc1)c1n[nH]c(Cn2cncn2)n1")
0.0

Could you check what this test reported for O=C(c1cccs1)C1C(c2ccc(Br)cc2)NC(=S)NC1(O)C(F)(F)F (stereo not drawn) ?
0.0

Could you check what this test reported for CC(=O)C1=C(C)NC(=O)NC1c1ccc2c(c1)OCO2 (stereo not drawn) ?
0.0

Could you check what this test reported for "NNc1nnc(NN)c2ccccc12" ?
0.0

----------
Protocol Summary: qHTS for Inhibitors of human tyrosyl-DNA phosphodiesterase 1 (TDP1): qHTS in cells in absence of CPT; further: nearly all actives have a fitted effect of over 55% in size
Condition Set: DT40 Tdp1-/- hTDP1 cells, no CPT, ATP luminescence, 48 h
About 64,000 (15%) of roughly 420,000 compounds were called active. Roughly 27% stayed inconclusive and do not appear here. Calls follow the shape of the dose curve; as a rule, active = well fitted inhibition curve with a large enough effect; inconclusive = small, poorly fitted or top-dose-only effect; inactive = flat fitted curve, though single readings scatter. Only a sample is shown.
Could you please pick one outcome from this set? class 1 (active), class 0 (inactive)

Example entries and their recorded answers appear below.
>>> category_label("CC(C)[C@@H]1NC(=O)c2cc([N+](=O)[O-])cc(I)c2NCCC[C@@H](C(=O)NC(CC(=O)O)C(N)=O)NC(=O)[C@H](CO)NC1=O (some centres not stated)")
"class 0"
>>> category_label("CCn1c(CSc2nncn2-c2ccc(OC)cc2)nc2cc(S(=O)(=O)N(C)C)ccc21")
"class 0"
>>> category_label("COC(=O)NNC1=CC(=O)CC(C)(C)C1")
"class 0"
>>> category_label("Cn1c(=N)n(CC(O)c2ccccc2)c2ccccc21 (configuration not stated)")
"class 0"
>>> category_label("O=C(CCS(=O)(=O)c1ccccc1)NC1CCCC1")
"class 0"

Could you check what this test reported for CSCCC(NC(=O)c1cc([N+](=O)[O-])cc([N+](=O)[O-])c1)c1nc2ccccc2[nH]1 (configuration not stated) ?
class 1

Could you check what this test reported for "Cc1cccc(NC(=O)Cc2ccc(Br)cc2)n1" ?
class 0
